experiment.summary: HUVEC growth inhibition – cell-based, human, primary screen (AID 575)
setup.conditions: HUVEC proliferation, CellTiter-Glo luminescence, 72 h; at 10 µM; stronger effect = lower value
viability less than 80% is fulfilled; viability greater than or equal to 80% is not fulfilled.

[[record]]
molecule = "NC(=O)c1nsnc1-c1ccccc1O"
assigned_category = "not fulfilled"

[[record]]
molecule = "CSCSC1=C(C#N)C(c2ccc(Cl)cc2)C(C(C)=O)=C(C)N1 (stereo unspecified)"
assigned_category = "fulfilled"


Shift focus to the following entry.
QUERY: Quick check: viability of COc1cc2c(cc1OC)C(C)N(C(=O)c1cc3n(n1)C(C(F)(F)F)CC(c1ccco1)N3)CC2 (stereo unspecified) under 80%?
RESULT: fulfilled
